# Assay system: human Nav1.8 (hNav1.8) ion channel (Homo sapiens, UniProt Q9Y5Y9)
# Sequence (Q9Y5Y9 whole entry): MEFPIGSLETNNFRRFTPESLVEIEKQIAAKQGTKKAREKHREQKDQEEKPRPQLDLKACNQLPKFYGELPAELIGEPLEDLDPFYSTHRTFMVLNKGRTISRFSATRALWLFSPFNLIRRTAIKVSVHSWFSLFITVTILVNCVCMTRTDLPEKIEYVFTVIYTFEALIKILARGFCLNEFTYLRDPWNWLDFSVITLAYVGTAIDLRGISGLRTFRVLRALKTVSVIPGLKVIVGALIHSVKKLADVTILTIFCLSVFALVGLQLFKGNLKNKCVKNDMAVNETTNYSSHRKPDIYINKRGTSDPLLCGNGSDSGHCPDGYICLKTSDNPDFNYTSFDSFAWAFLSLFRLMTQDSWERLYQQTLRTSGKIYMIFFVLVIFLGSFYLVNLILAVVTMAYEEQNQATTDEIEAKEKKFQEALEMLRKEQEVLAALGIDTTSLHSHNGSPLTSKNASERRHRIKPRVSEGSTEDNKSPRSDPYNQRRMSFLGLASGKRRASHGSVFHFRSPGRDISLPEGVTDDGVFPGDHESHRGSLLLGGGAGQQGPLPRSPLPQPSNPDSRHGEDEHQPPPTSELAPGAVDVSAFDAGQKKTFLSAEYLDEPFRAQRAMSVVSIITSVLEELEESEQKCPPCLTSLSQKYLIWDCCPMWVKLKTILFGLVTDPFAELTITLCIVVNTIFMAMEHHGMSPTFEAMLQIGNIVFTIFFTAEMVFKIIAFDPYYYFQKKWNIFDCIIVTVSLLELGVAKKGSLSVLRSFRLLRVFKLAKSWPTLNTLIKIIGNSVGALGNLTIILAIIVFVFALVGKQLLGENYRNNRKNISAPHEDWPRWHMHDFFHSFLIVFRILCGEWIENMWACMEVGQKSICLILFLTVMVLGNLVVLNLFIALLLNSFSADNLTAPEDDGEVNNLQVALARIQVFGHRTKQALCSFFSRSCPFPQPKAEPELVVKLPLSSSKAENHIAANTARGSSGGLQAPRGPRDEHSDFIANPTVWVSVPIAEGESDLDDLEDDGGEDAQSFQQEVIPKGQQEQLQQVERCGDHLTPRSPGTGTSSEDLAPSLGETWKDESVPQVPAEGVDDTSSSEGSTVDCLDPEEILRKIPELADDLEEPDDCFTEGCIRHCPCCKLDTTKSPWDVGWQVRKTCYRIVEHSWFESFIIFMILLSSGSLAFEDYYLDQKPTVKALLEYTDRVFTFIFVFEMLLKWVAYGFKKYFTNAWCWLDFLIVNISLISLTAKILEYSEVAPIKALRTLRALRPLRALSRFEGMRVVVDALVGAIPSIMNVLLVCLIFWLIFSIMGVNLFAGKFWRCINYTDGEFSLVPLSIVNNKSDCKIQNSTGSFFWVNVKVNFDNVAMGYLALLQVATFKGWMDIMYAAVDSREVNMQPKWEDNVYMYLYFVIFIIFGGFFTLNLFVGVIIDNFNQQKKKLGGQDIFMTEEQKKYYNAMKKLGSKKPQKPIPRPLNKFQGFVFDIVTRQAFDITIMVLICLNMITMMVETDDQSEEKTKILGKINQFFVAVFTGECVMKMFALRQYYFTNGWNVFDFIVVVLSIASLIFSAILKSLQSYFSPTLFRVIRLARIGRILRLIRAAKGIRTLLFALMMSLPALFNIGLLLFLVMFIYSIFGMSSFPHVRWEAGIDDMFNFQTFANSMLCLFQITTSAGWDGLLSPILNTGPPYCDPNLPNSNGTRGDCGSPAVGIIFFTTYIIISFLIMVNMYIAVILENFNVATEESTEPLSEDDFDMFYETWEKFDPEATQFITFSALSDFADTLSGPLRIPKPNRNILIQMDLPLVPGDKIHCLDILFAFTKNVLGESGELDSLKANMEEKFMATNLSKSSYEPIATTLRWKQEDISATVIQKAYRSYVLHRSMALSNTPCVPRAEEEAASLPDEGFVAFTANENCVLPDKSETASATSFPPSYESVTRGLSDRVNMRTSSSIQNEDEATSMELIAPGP
# Assay method text: Nav1.8 channel inhibition, estimated IC50 (one or more of: fluorescence inhibition assay, PatchXpress, IonFlux HT automated patch clamp)
# Assay setup: HEK293 cells stably expressing hNav1.8; method used per compound not stated; read-out: Activity range (estimated IC50)
pIC50: −log10 of the molar value.
The entries below come with measured pIC50 values attached.

Completed entries (count: 2):
- O=C(Nc1ccc[n+]([O-])c1)c1cnc(C(F)(F)F)cc1Oc1ccc(OC(F)F)cc1: 6.00 to 6.30
- CS(=O)(=O)c1cccc(NC(=O)c2cc([N+](=O)[O-])cnc2Oc2ccc(OC(F)(F)F)cc2)c1: > 6.30

Report pIC50 for CS(=N)(=O)c1cccc(NC(=O)c2cnc(C(F)(F)F)cc2Oc2ccc(OC(F)(F)F)cc2Cl)c1 (stereo not drawn) please.
> 6.30
